target: UniProt:Q9H2K2; assay: Biochemical IC50 TNKS2; details: read-out: Biochemical IC50 TNKS2
Sorting guide: entries reporting IC50 beneath 10 nM go in the 1 (yes) pile, the rest go in the 0 (no) pile.

Check if IC50 falls below 10 nM for CCOc1ccc(-c2nnc([C@H]3C[C@H](NC(=O)c4cc5sc(C)cc5[nH]4)C3)n2-c2ccccc2F)nc1 .
1 (yes)

I'd appreciate it if you could check whether O=C(N[C@H]1C[C@H](c2nnc(-c3nccs3)n2-c2ccccc2Cl)C1)c1ccc(F)cc1 has IC50 smaller than 10 nM.
0 (no)

hey, is IC50 for O=C(N[C@H]1C[C@H](c2nnc(-c3nccs3)n2-c2ccccc2)C1)c1ccccn1 lower than 10 nM or not?
0 (no)

A record lists CCOc1ccc(-c2nnc([C@H]3C[C@H](NC(=O)c4ccc5cnccc5n4)C3)n2-c2ccccc2F)nc1 . Is its IC50 below 10 nM?
1 (yes)

Is the reported IC50 for O=C(NC12CC(c3nnc(-c4ccncn4)n3-c3ccccc3Cl)(C1)C2)c1ccnc2cccnc12 strictly below 10 nM?
1 (yes)

Please determine if CCOc1ccc(-c2nnc(C34CC(NC(=O)c5ccnc6cccnc56)(C3)C4)n2-c2ccccc2F)nc1 is below 10 nM in terms of IC50.
1 (yes)

Please let me know if CCOc1ccc(-c2nnc([C@H]3C[C@H](NC(=O)c4ccc(F)cn4)C3)n2-c2ccccc2F)nc1 shows IC50 below 10 nM.
1 (yes)

Check if IC50 falls below 10 nM for CCOc1ccc(-c2nnc([C@H]3C[C@H](NC(=O)c4cc5cccnc5[nH]4)C3)n2-c2ccccc2F)nc1 .
0 (no)

I wonder whether CCOc1ccc(-c2nnc([C@H]3C[C@H](NC(=O)c4ccc5ccccc5n4)C3)n2-c2ccccc2F)nc1 has IC50 below 10 nM. Can you tell?
1 (yes)

Criterion: IC50 strictly below 10 nM. Is it met by O=C(N[C@H]1C[C@H](c2nnc(-c3nccs3)n2-c2ccccc2)C1)c1ccc(F)cc1 ?
0 (no)

Determine whether this compound shows IC50 lower than 10 nM (ties excluded): CCOc1ccc(-c2nnc([C@H]3C[C@H](NC(=O)c4ccnc5cccnc45)C3)n2-c2ccc(C)s2)nc1
1 (yes)

Criterion: IC50 strictly below 10 nM. Is it met by CCOc1ccc(-c2nnc([C@H]3C[C@H](NC(=O)c4ccn(C)n4)C3)n2-c2ccccc2F)nc1 ?
0 (no)

Determine whether this compound shows IC50 lower than 10 nM (ties excluded): O=C(NC12CC(c3nnc(-c4ccncn4)n3-c3ccccc3Cl)(C1)C2)c1ccccc1
1 (yes)

Consider the compound CCOc1ccc(-c2nnc([C@H]3C[C@H](NC(=O)c4ccccn4)C3)n2-c2ccccc2)nc1 . Is its IC50 strictly less than 10 nM?
1 (yes)

Please check: IC50 for CS(=O)(=O)c1ccc(-c2nnc([C@H]3C[C@H](NC(=O)c4ccnc5cc(F)cnc45)C3)n2-c2ccccc2F)nc1 , strictly under 10 nM or not?
1 (yes)

Record O=C(N[C@H]1C[C@H](c2nnc(-c3ccccc3)n2-c2ccccc2F)C1)c1ccnc2cccnc12 : is its IC50 strictly below 10 nM?
1 (yes)

Is IC50 strictly under 10 nM for the entry Cc1cccc(-c2nnc([C@H]3C[C@H](NC(=O)c4ccc5cnccc5n4)C3)n2-c2ccccc2F)n1 ?
1 (yes)

Does the reported IC50 of the following compound sit strictly below 10 nM? CCOc1ccc(-c2nnc(C34CC(NC(=O)c5ccnc6cccnc56)(C3)C4)n2-c2cccnc2)nc1
1 (yes)

For this compound, is IC50 lower than 10 nM? O=C(N[C@H]1C[C@H](c2nnc(-c3nccs3)n2-c2ccc(Cl)s2)C1)c1ccccn1
0 (no)

Input CCOc1ccc(-c2nnc(C34CC(NC(=O)c5ccnc6cc(F)cnc56)(C3)C4)n2-c2ccccc2)nc1 ; condition: IC50 strictly below 10 nM. Does it hold?
1 (yes)

Would you kindly verify if IC50 of CCOc1ccc(-c2nnc([C@H]3C[C@H](NC(=O)c4ccccn4)C3)n2-c2cccc(Cl)c2)nc1 is strictly less than 10 nM?
0 (no)

IC50 strictly < 10 nM for this compound? O=C(N[C@H]1C[C@H](c2nnc(-c3nccs3)n2-c2ccccc2F)C1)c1ccc(F)cc1
0 (no)

Threshold test, IC50 < 10 nM: CCOc1ccc(-c2nnc([C@H]3C[C@H](NC(=O)c4nn(C)c5ccccc45)C3)n2-c2ccccc2F)nc1
0 (no)

IC50 strictly < 10 nM for this compound? O=C(N[C@H]1C[C@H](c2nnc(-c3nccs3)n2-c2ccccc2F)C1)c1ccccc1
0 (no)

Given Cc1cccc(-c2nnc([C@H]3C[C@H](NC(=O)c4cccc5nccnc45)C3)n2-c2ccccc2F)n1 , is recorded IC50 strictly lower than 10 nM?
1 (yes)

Does the reported IC50 of O=C(N[C@H]1C[C@H](c2nnc(-c3ccncn3)n2-c2ccccc2Cl)C1)c1ncccc1F stay below 10 nM?
0 (no)

Find out if reported IC50 for CCOc1ccc(-c2nnc([C@H]3C[C@H](NC(=O)c4cc5cnccc5[nH]4)C3)n2-c2ccccc2F)nc1 is less than 10 nM
1 (yes)

Decide: IC50 of CCOc1ccc(-c2nnc([C@H]3C[C@H](NC(=O)c4ccc5ncccc5n4)C3)n2-c2ccncc2)nc1 strictly below 10 nM?
0 (no)

API: query returns whether the compound falls strictly under 10 nM in IC50. Query: O=C(N[C@H]1C[C@H](c2nnc(-c3ccncn3)n2-c2ccccc2Cl)C1)c1ccnc2cccnc12
1 (yes)

is_below(IC50, 10 nM) for O=C(N[C@H]1C[C@H](c2nnc(-c3ccccn3)n2-c2ccccc2F)C1)c1ccc2cnccc2n1 ?
1 (yes)

---

Kindly supply the reported pIC50 values for the records listed here.
biological target: TNKS2 (Homo sapiens (Human)); assay: Biochemical IC50 TNKS2; conditions: read-out: Biochemical IC50 TNKS2
Sequence (Q9H2K2 whole entry): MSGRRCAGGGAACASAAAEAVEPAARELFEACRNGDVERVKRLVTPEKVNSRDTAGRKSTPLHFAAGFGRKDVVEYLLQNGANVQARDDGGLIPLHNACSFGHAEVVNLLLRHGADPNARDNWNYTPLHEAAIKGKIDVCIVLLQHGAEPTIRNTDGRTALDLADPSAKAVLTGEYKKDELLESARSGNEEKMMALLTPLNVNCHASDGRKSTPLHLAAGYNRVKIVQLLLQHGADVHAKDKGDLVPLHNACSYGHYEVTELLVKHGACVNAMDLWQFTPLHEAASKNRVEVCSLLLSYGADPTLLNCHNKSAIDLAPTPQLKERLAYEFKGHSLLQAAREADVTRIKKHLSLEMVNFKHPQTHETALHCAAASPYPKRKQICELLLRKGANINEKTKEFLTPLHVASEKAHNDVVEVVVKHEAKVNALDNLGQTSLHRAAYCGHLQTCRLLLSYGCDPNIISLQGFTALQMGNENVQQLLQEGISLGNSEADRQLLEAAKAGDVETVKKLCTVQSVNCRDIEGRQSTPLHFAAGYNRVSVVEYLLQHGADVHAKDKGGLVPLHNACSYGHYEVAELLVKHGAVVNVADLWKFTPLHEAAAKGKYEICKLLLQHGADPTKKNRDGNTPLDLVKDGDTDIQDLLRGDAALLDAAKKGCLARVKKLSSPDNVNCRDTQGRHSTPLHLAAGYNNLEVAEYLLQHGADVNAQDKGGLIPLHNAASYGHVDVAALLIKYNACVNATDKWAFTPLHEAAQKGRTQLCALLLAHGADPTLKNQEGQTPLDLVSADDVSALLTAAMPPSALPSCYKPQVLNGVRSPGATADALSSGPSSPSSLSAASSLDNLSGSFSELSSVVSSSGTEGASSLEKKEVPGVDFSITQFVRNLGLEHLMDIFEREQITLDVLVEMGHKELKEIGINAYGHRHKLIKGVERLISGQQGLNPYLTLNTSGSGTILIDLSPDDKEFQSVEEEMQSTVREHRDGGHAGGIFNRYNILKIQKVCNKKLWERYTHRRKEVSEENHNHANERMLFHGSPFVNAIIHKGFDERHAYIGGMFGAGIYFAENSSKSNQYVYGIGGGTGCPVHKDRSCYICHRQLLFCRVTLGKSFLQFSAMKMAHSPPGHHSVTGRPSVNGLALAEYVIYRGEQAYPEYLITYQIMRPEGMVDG
The scale used: pIC50 is minus the common logarithm of the concentration in molar units.

Supply reported pIC50 belonging to this molecule: CCOc1ccc(C(=O)N[C@H]2C[C@H](c3nnc(-c4nccs4)n3-c3ccccc3F)C2)nc1 [Example 30]
8.70

Hello, please tell me recorded pIC50 for this one: CCOc1ccc(-c2nnc([C@H]3C[C@H](NC(=O)c4cccc(C(F)(F)F)n4)C3)n2-c2ccccc2F)nc1 [Example 125]
7.55

// fetch pIC50 given entry O=C(N[C@H]1C[C@H](c2nnc(-c3ccccc3)n2-c2ccccc2F)C1)c1ccccn1 [Example 174]
6.67

Quote pIC50 reported for CC(C)Oc1ccc(-c2nnc([C@H]3C[C@H](NC(=O)c4ccccn4)C3)n2-c2ccccc2F)nc1 [Example 111] please.
7.92

Entry CCOc1ccc(-c2nnc([C@H]3C[C@H](NC(=O)c4cccc5cccnc45)C3)n2-c2ccccc2F)nc1 [Example 60] needs its pIC50 filled in; supply it.
8.68

Note down pIC50 recorded for O=C(N[C@H]1C[C@H](c2nnc(-c3ccc(OC(F)F)cn3)n2-c2ccccc2F)C1)c1cc(F)cc2nccnc12 [Example 186]
8.62

Hello, please tell me recorded pIC50 for this one: O=C(N[C@H]1C[C@H](c2nnc(-c3cnccn3)n2-c2ccccc2F)C1)c1ccccn1 [Example 91]
6.55

Specify measured pIC50 for CCOc1ccc(-c2nnc([C@H]3C[C@H](NC(=O)c4ccc5cc[nH]c5n4)C3)n2-c2ccccc2F)nc1 [Example 98] .
8.31

Provide pIC50 value for the following molecule: O=C(N[C@H]1C[C@H](c2nnc(-c3ccccc3)n2-c2ccccc2F)C1)c1ccc(F)cn1 [Example 175]
6.82

Return pIC50 for the following molecule: CCOc1ccc(-c2nnc([C@H]3C[C@H](NC(=O)c4ccccn4)C3)n2-c2ccccc2Cl)nc1 [Example 134]
8.43

Report measured pIC50; entry is CCOc1ccc(-c2nnc([C@H]3C[C@H](NC(=O)c4ccc5cccnc5n4)C3)n2-c2ccccc2F)nc1 [Example 147]
7.72

Give the value of pIC50 reported for the following: COc1ccc(C(=O)N[C@H]2C[C@H](c3nnc(-c4ccncn4)n3-c3ccccc3Cl)C2)nc1 [Example 131]
8.35

Indicate the recorded pIC50 value for this molecule: CCOc1ccc(-c2nnc([C@H]3C[C@H](NC(=O)c4cc5ncccc5[nH]4)C3)n2-c2ccccc2F)nc1 [Example 148]
8.30

Supply measured pIC50 of CCOc1ccc(-c2nnc([C@H]3C[C@H](NC(=O)c4ccnc5cccnc45)C3)n2-c2ccc(Cl)s2)nc1 [Example 76] in your reply.
8.70

Return reported pIC50. Input molecule: CCOc1ccc(-c2nnc([C@H]3C[C@H](NC(=O)c4cccc(C(C)(C)O)n4)C3)n2-c2ccccc2F)nc1 [Example 129]
6.68

Input CCOc1ccc(-c2nnc([C@H]3C[C@H](NC(=O)c4ccnc5cc(F)cnc45)C3)n2-c2ccccc2F)nc1 [Example 57] , output reported pIC50.
8.70

Look up pIC50 of CCOc1ccc(-c2nnc([C@H]3C[C@H](NC(=O)c4ncccc4C)C3)n2-c2ccccc2F)nc1 [Example 102] and report it.
6.72

Look up and report measured pIC50 for this entry: CCOc1ccc(-c2nnc([C@H]3C[C@H](NC(=O)c4ccnc5cccnc45)C3)n2-c2ccccc2F)nc1 [Example 55]
8.70
